Staphylococcus aureus 133 data, read-out MIC
Give bare numbers, in µg/mL.

The following compounds have reported results that may help.
Consider NC1CCN(c2ccc3c(=O)c(C(=O)O)cn(C4CC4)c3c2F)C1 (centres unmarked) [Reference, reference compound] . Its measured MIC is 0.125

Consider CC1C=CC(N)C2CN(c3ccc4c(=O)c(C(=O)O)cn(C5CC5)c4c3Cl)CC12 (centres unmarked) . Its measured MIC is 0.0078

Consider CC1C=CC(N)C2CN(c3ccc4c(=O)c(C(=O)O)cn(C5CC5)c4c3F)CC12 (centres unmarked) . Its measured MIC is 0.015

Consider NC1C=CCC2CN(c3ccc4c(=O)c(C(=O)O)cn(C5CC5)c4c3F)CC12 (centres unmarked) . Its measured MIC is 0.03

Consider the additional compound presented here.
Consider NC1C=CCC2CN(c3ccc4c(=O)c(C(=O)O)cn(C5CC5)c4c3Cl)CC12 (centres unmarked) . Its measured MIC is 0.0039
